// IC50 lookup, one value per entry
# test_system: CDK2/Cyclin E1 (Homo sapiens, UniProt P24941)
# test: ADP-Glo Luminescent Kinase Assay (CDK2/E1-37C)
# Assay type: biochemical
# stated_conditions: 0.18 nM CDK2/Cyclin E1, 100 μM ATP, Histone H1, 37° C.; read-out: ADPGLO (CDK2/E1-37C): IC50
experimental_endpoint: IC50

1) O=C(O)c1c(COC[C@@H]2CN(c3cc(F)c(F)c4ncsc34)CC23CN(C(=O)C2(C(F)(F)F)CC2)C3)cccc1C1CCC(C(F)(F)F)CC1 (some centres unmarked)	≤ 500 nM
2) O=C(O)c1ccccc1Cn1cc(C(=O)N2C[C@@H](COCc3cccc(C4CCC(C(F)(F)F)CC4)c3)C3(C2)CN(C(=O)C2(C(F)(F)F)CC2)C3)cn1 (stereo in doubt)	500 to 5000 nM
3) CC(C)(C(=O)N1CC2(CN(C(=O)c3cnn(Cc4ccc(F)cc4)c3)C[C@H]2COCc2cccc(-c3cccc(F)c3)c2C(=O)O)C1)C(F)(F)F	≤ 500 nM
4) COC(=O)c1c(O)cc(COCC2CN(C(=O)c3cnn(Cc4ccc(C(F)(F)F)cc4)c3)CC23CN(C(=O)C2(C(F)(F)F)CC2)C3)cc1-c1ccc(C(F)(F)F)cc1 (centres unmarked)	> 10000 nM
5) O=C(O)Cc1c(COC[C@@H]2CN(C(=O)c3cnn(Cc4ccc(F)cc4)c3)CC23CN(C(=O)C2(C(F)(F)F)CC2)C3)cccc1C1CCC(C(F)(F)F)CC1 (some centres unmarked)	≤ 500 nM

----------
# test_system: CDK2/Cyclin E1 (Homo sapiens)
# test: ADP-Glo Luminescent Kinase Assay (CDK2/E1-37C)
# Assay type: biochemical
# stated_conditions: 0.18 nM CDK2/Cyclin E1, 100 μM ATP, Histone H1, 37° C.; read-out: ADPGLO (CDK2/E1-37C): IC50
experimental_endpoint: IC50

1) Cc1cc(F)ccc1-c1cccc(COCC2CN(C(=O)c3cnn(Cc4ccc(F)cc4)c3)CC23CN(C(=O)C2(C(F)(F)F)CC2)C3)c1C(=O)O (stereo not drawn) [I′-77]	≤ 500 nM
2) CC(C)(C(=O)N1CC2(CN(C(=O)c3cnn(Cc4ccc(F)cc4)c3)C[C@H]2COCc2c(C(F)(F)F)ccc(C3CCC(F)(F)CC3)c2C(=O)O)C1)C(F)(F)F [I′-20]	≤ 500 nM
3) C[C@H](c1ccc(F)cc1)n1cc(C(=O)N2CC(COCc3cccc(C4CCC(C(F)(F)F)CC4)c3C(=O)O)C3(C2)CN(C(=O)C2(C(F)(F)F)CC2)C3)cn1 (stereo partly drawn) [Compound I-78]	500 to 5000 nM

----------
# test_system: CDK2/Cyclin E1 (Homo sapiens, UniProt P24941)
# test: ADP-Glo Luminescent Kinase Assay (CDK2/E1-37C)
# Assay type: biochemical
# stated_conditions: 0.18 nM CDK2/Cyclin E1, 100 μM ATP, Histone H1, 37° C.; read-out: ADPGLO (CDK2/E1-37C): IC50
pIC50: −log10 of the molar value.
experimental_endpoint: pIC50

1) O=C(O)c1c(COCC2CN(c3ncnc4ncsc34)CC23CN(C(=O)C2(C(F)(F)F)CC2)C3)cccc1C1CCC(F)(F)CC1 (stereo not drawn)	≥ 6.30
2) CC(C)(C(=O)N1CC2(CN(C(=O)c3cnn(Cc4ccc(F)cc4)c3)C[C@H]2COCc2cccc(-c3ccc(C(F)(F)F)s3)c2C(=O)O)C1)C(F)(F)F	≥ 6.30
3) Cc1c(COC[C@@H]2CN(C(=O)c3cncs3)CC23CN(C(=O)[C@H]2CC2(C)C)C3)cccc1C1CCOCC1	5.30 to 6.30
